// provenance: patent US20240150466A1

Assignment: determine reported pKd for the given binders.
# target-under-test: T1, cynomolgus IGFBP7 recombinant protein (cynomolgus)
# T1 chain: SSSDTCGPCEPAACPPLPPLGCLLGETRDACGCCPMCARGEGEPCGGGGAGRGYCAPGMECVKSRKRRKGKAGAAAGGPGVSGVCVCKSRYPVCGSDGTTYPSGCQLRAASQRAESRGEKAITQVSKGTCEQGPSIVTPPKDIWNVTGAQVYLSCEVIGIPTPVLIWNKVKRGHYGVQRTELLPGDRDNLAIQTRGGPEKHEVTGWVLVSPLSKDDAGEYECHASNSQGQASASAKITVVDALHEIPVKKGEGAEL
# test-protocol: BLI
// scale note: pKd = -log10(conc_M); give the bare number

Enquiry: Entry under review: A1-mIgG1 nanobody Fc-fusion (Fc fusion, VHH fused with mIgG1 Fc fragment, expressed in Expi293 cells; also called monospecific A1-mIgG1; not shown: mouse IgG1 Fc fragment (mIgG1 Fc)) VQLQESGGGLVQAGGSLRLSCAASGSLFAIDKWGWYRQVAGNERELVAWRYSPVSINYGDSVKGRFTVSGDSSRKRVYLQMNSLKPDDTAVYRCAAVISGAWYWGQGTQVTVSS . Reported pKd?
Return: 8.50

Enquiry: Which measured pKd value corresponds to bispecific anti-IGFBP7 nanobody Fc-fusion construct A1D4-mIgG2a (bispecific antibody) VQLQESGGGLVQAGGSLRLSCAASGSLFAIDKWGWYRQVAGNERELVAWRYSPVSINYGDSVKGRFTVSGDSSRKRVYLQMNSLKPDDTAVYRCAAVISGAWYWGQGTQVTVSSVQLQESGGGLVQTGGSLRLSCAASGRSFTFSSYAMGWFRHAPGKEREFLTAITWSGDYTYYTDSVKGRSTISRDNAKNTVYLQLNNLKPEDTAVYYCAAKFSQVSAFFATVSEYEYWGQGTQVTVSS ?
Return: 9.03

Enquiry: Using the record for bispecific anti-IGFBP7 nanobody Fc-fusion construct A1-mIgG2a-D4 (bispecific antibody, V domains shown, also called A1-mIgG2a-D4-2; not shown: mouse IgG2a Fc fragment (mIgG2a Fc)) V domain 1: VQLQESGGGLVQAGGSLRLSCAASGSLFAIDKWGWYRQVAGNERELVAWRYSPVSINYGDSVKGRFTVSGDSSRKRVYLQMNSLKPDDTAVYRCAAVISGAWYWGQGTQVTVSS V domain 2: VQLQESGGGLVQTGGSLRLSCAASGRSFTFSSYAMGWFRHAPGKEREFLTAITWSGDYTYYTDSVKGRSTISRDNAKNTVYLQLNNLKPEDTAVYYCAAKFSQVSAFFATVSEYEYWGQGTQVTVSS , report its pKd.
Return: 9.71
